Assay: in vivo
Conditions: rat
attributeMeasured: half-life (h)
Give bare numbers, in h.

Request: What value of half-life has been recorded for this entry: CCS(=O)(=O)c1cc2cc(C[C@](O)(CC(C)(C)c3ccc(F)cc3C(N)=O)C(F)(F)F)[nH]c2cn1
Response: 4.2

====

Test: physchem
Details: buffer, pH 6.8
attributeMeasured: solubility thermodynamic at 24 h

Request: Give the measured solubility thermodynamic at 24 h of CC(C)(CC(O)(Cc1cc2cc(N3CCOCC3)ncc2[nH]1)C(F)(F)F)c1cccc(S(C)(=O)=O)c1 (stereo unspecified) .
Response: 47 µg/mL

The origin of these recorded values is ChEMBL document CHEMBL3352560.
